- protocol: Tissue distribution in C57 BL6 mice bearing B16
- Type: in vivo, mouse
- condition-details: mouse, stomach, iv, 3 umol/animal; 24 h; read-out: stomach % ID/g
measurement-label: tissue uptake at 24 h

Q: Endpoint output: tissue uptake at 24 h of CCN(CC)CCNC(=O)c1ccc(I)cc1 [Derivative A, N-(2-diethylaminoethyl) 4-iodo benzamide] . Value?
Result: 0.07 %ID/g

* * *

Consider the following compounds and their measured tissue uptake at 6 h readings.
- protocol: Tissue distribution in Swiss nu/nu SSCUP mice bearing Dau
- Assay type: in vivo, human
- condition-details: mouse, blood, iv, 3 umol/animal, 6 h; read-out: blood % ID/g
State the answer as a number, implicitly in %ID/g.

| compound | measure-unit | numeric-result |
| --- | --- | --- |
| CCNCCNC(=O)c1ccc(I)cc1 [Derivative B, N-(2-ethylaminoethyl) 4-iodo benzamide] | %ID/g | 0.53 |

Q: Endpoint output: tissue uptake at 6 h of CCN(CC)CCNC(=O)c1ccc(I)cc1 [Derivative A, N-(2-diethylaminoethyl) 4-iodo benzamide] . Value?
Result: 0.23

Cited source for all entries: patent US5190741A
